The reported measurements were obtained from PubChem BioAssay.

- procedureDetails: binders from COS7 lysate, DM2A8 probe, primary screen, torsin A project, cell lysate, small-molecule microarray, fluorescence 635/667 (AID 1065)
- conditionContext: higher = more signal, COS7 lysate expressing mutant human TOR1A
# if value of composite z-score reaches 0.6, tag rule met; if it stays below, tag rule not met

inputSmiles	qualitativeLabel
COCCOC(=O)N1C(=O)[C@@]2(c3ccccc31)[C@H](C(=O)Nc1nc3ccccc3s1)[C@H]1C(=O)O[C@H](c3ccccc3)[C@H](c3ccccc3)N1[C@@H]2c1ccc(OCCO)cc1	rule met
Cc1ccc(S[C@]2(C(=O)NCC(C)C)CC(=O)N(Cc3ccccc3Cl)[C@@H]2c2ccc(CO)cc2)cc1	rule not met
CC(C)(C)OC(=O)CC[C@@]1(C(=O)NCCN2CCOCC2)N=C(c2ccc(OCCCO)cc2)O[C@@H]1c1ccccc1	rule met
CCCCC=C[C@@H](NC(=O)c1ccco1)c1ccccc1	rule not met
COc1ccc(C#Cc2ccc3c(c2)[C@]2(C(=O)N3)[C@H](c3ccc(O)cc3)N3[C@H](c4ccccc4)[C@H](c4ccccc4)OC(=O)[C@H]3[C@@H]2C(=O)NC[C@H](O)c2ccccc2)cc1	rule not met
CC(C)N1C(=O)[C@@]2(c3ccc([N+](=O)[O-])cc3)CC(=O)N(CC34CC5CC(CC(C5)C3)C4)[C@@H]2c2ccc(CO)cc21	rule not met

* * *

- testedOn: Follistatin (Homo sapiens)
- procedureDetails: follistatin binders on small-molecule microarrays, primary screen, biochemical, small-molecule microarray, 635/667 nm fluorescence (AID 1132)
- conditionContext: FST binding, 635 nm fluorescence, higher = more signal
propertyLabel: composite z-score

molecule	recordedValue
CC(C)(C)OC(=O)CC[C@@]1(C(=O)NCCN2CCOCC2)N=C(c2ccc(OCCCO)cc2)O[C@@H]1c1ccccc1	1.28
COCCOC(=O)N1C(=O)[C@@]2(c3cc(C#CCCO)ccc31)[C@H](c1ccc(O)cc1)N1[C@H](c3ccccc3)[C@H](c3ccccc3)OC(=O)[C@H]1[C@@H]2C(N)=O	0.931
COC(=O)C[C@@H]1C[C@H](C)[C@]2(O1)C(=O)N(Cc1ccccc1)c1ccc(NC(C)=O)cc12	0.431
Cc1ccc(S[C@]2(C(=O)NC3CC3)CC(=O)N(Cc3ccccc3)[C@@H]2c2ccc(CO)cc2)cc1	-0.432
COc1ccc([Si](C)(C)[C@@H]2[C@@H](CC(=O)N3CCC[C@H]3CO)O[C@]3(C(=O)N(C)c4c(Br)cc(C)cc43)[C@H]2C)cc1	1.17
O=C1OCC=C[C@H]2OC34C=CCN(c5ccc6ccccc6c5)C(=O)[C@H]3N(CCCO)C(=O)[C@@H]4[C@@H]12 (some centres not stated)	0.0786
N#Cc1ccc(NN2C(C(O)c3cccs3)C=CC3C(=O)N(c4ccccc4)C(=O)C32)cc1 (configuration not stated)	0.556

* * *

Item-by-item account of z-score
- procedureDetails: PSAC antagonists in infected red cells, primary screen, cell-based, P. falciparum Indochina, OD700, 1 h (AID 1154)
- conditionContext: P. falciparum Indochina infected RBC osmotic lysis, higher = more signal, called active from +8 up or from −8 down

compound	z-score
O=C1N(CCS(=O)(=O)c2ccccc2)Cc2ccccc2[C@H]2OC(c3ccc(OCCCO)cc3)=N[C@@]12CCS(=O)(=O)c1ccccc1	31.1
CCC[C@@H]1C=C(C(=O)O)[C@H](c2ccc(C)cc2)N1S(=O)(=O)c1ccc(C)cc1	0.0822
C=CCC(OC(C)=O)[C@@H]1[C@@H](N(Cc2ccc(-c3cccc(C(F)(F)F)c3)o2)C(=O)c2ccc(C)cc2)c2cc(OCCCO)ccc2N1C(=O)c1ccc(-c2ccccc2)cc1 (some centres not stated)	1.93
O=C1OCC=C[C@H]2OC34C=CCN(c5ccc6ccccc6c5)C(=O)[C@H]3N(CCCO)C(=O)[C@@H]4[C@@H]12 (some centres not stated)	0.638
O=C(O)[C@H]1C[C@H]2C(=O)NCC(=O)N2[C@H]1c1ccc(O)cc1	2.81
CC(C)(C)N1CC=CC23O[C@@H]4C=CCOC(=O)[C@@H]4[C@H]2C(=O)N(CCCCCO)[C@@H]3C1=O (some centres not stated)	0.987
CCOC(=O)C[C@H]1[C@H](OC(=O)Cc2ccc3c(c2)OCO3)[C@@H](NC(=O)c2ccc(-c3ccccc3)cc2)c2cc(OCCCO)ccc2N1C(=O)c1ccccc1	8.3

* * *

- testedOn: Carbonic anhydrase 2 (Homo sapiens)
- procedureDetails: CAII small-molecule binders, profiling panel, biochemical, small-molecule microarray, Alexa647-labelled CAII (AID 1122)
- conditionContext: CAII-A647 binding fluorescence, higher = more signal
Catalogue of compounds with associated composite z-score
propertyLabel: composite z-score

compound	propertyLabel	recordedValue
O=C(CS)NCCCCCCNC(=O)[C@H]1C[C@H]2C(=O)NCC(=O)N2[C@H]1c1ccc(O)cc1	composite z-score	0.696
COC(=O)C(CC#Cc1ccc2c(c1)[C@]1(C(=O)N2)[C@H](c2ccc(OCCO)cc2)N2[C@H](c3ccccc3)[C@H](c3ccccc3)OC(=O)[C@H]2[C@@H]1C(=O)NC[C@H](O)c1ccccc1)C(=O)OC	composite z-score	0.497
C=C(CCCC)/C(=C/C[C@H](OC(C)=O)c1ccc(CO)o1)c1cnc2ccccc2c1	composite z-score	0.73
C=CCNC(=O)[C@H]1[C@@H]2C(=O)O[C@@H](c3ccccc3)[C@@H](c3ccccc3)N2[C@@H](c2ccc(O)cc2)[C@]12C(=O)N(C(=O)OCCOC)c1ccc(C#CCCO)cc12	composite z-score	0.701
CCCCCN1CC=CC23O[C@@H]4C=CCOC(=O)[C@@H]4[C@H]2C(=O)N(CCCO)[C@@H]3C1=O (some centres undefined)	composite z-score	0.851
CC(C)N1CC=CC23O[C@@H]4C=CCOC(=O)[C@@H]4[C@H]2C(=O)N(CCO)[C@@H]3C1=O (some centres undefined)	composite z-score	0.9
C=CCNC(=O)[C@@H]1[C@H]2C(=O)O[C@H](c3ccccc3)[C@H](c3ccccc3)N2[C@H](c2ccccc2OCCO)[C@@]12C(=O)Nc1ccc(C#CC3=CCCCC3)cc12	composite z-score	0.271
[N-]=[N+]=NCc1ccccc1C[C@]1(C(=O)NCCN2CCOCC2)N=C(c2ccc(OCCCO)cc2)O[C@H]1c1ccccc1N=[N+]=[N-]	composite z-score	0.599
O=C1C2C=CC(C(O)c3ccc(-c4ccccc4)s3)N(n3cnnc3)C2C(=O)N1Cc1ccccc1 (centres undefined)	composite z-score	0.465
COc1c(C)cc(-c2cc3c(c(-c4ccc(Oc5ccccc5)cc4)n2)[Si](C(C)C)(C(C)C)OC3)cc1C	composite z-score	-0.229
O=c1cccc(CCc2ccccc2)o1	composite z-score	0.731
C=CCOC(=O)[C@H]1[C@@H]2C(=O)O[C@@H](c3ccccc3)[C@@H](c3ccccc3)N2[C@@H](c2ccc(OCCOC(=O)[C@@H]3C[C@@H]4C(=O)NCC(=O)N4[C@@H]3c3ccc(O)cc3)cc2)[C@]12C(=O)Nc1ccccc12	composite z-score	0.475
CCCCCN1CC=CC23O[C@@H]4/C=C\CCCOC(=O)C4[C@H]2C(=O)N(CCCCCCO)[C@@H]3C1=O (some centres undefined)	composite z-score	0.858
CN1C=C(C(=O)OCCS(C)(=O)=O)C(C(=O)OCCS(C)(=O)=O)=CC(CCCO)=CC1C1CC1 (centres undefined)	composite z-score	0.826

* * *

- procedureDetails: small-molecule binders of probe aLefty1, primary screen, biochemical, small-molecule microarray, 635/667 nm fluorescence (AID 1153);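 also: score merges spot fluorescence with signal-to-noise ratio from the scanned slide images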
- conditionContext: higher = more signal

molecule	composite z-score
Cc1ccc(S[C@]2(C(=O)O)CC(=O)N(C3Cc4ccccc4C3)[C@@H]2c2ccc(CO)cc2I)cc1	-0.0559
COCCOC(=O)N1C(=O)[C@@]2(c3ccccc31)[C@H](C(=O)NC[C@H](O)c1ccccc1)[C@H]1C(=O)O[C@H](c3ccccc3)[C@H](c3ccccc3)N1[C@@H]2c1ccc(OCCO)cc1	-0.496
CC(C)CNC(=O)[C@@H]1c2ccccc2C(=O)N(Cc2cc(C(F)(F)F)cc(C(F)(F)F)c2)[C@H]1c1ccc(CO)cc1	0.197
O=C1O[C@H](c2ccccc2)[C@H](c2ccccc2)N2[C@H]1[C@@H](C(=O)O)[C@]1(C(=O)Nc3ccc(C#CC4(O)CCCCCC4)cc31)[C@H]2c1ccc(OCCO)cc1	-0.031
COCCOC(=O)N1C(=O)[C@@]2(c3cc(C#CCNC(N)=O)ccc31)[C@H](c1ccc(OCCO)cc1)N1[C@H](c3ccccc3)[C@H](c3ccccc3)OC(=O)[C@H]1[C@@H]2C(=O)N1CCc2cc(OC)c(OC)cc2C1	0.308
C=CCC(OC(C)=O)[C@@H]1[C@@H](N(Cc2ccc(-c3ccccc3)cc2)C(=O)Cc2ccc(F)cc2)c2cc(OCCCO)ccc2N1C(=O)c1ccc2ccccc2n1 (stereo partly specified)	0.22

* * *

- procedureDetails: small-molecule binders of probe aNOTCH2, primary screen, biochemical, small-molecule microarray, 635/667 nm fluorescence (AID 1121);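 also: score merges feature fluorescence read at 667 nm with its signal to noise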
- conditionContext: higher = more signal
Entries and their composite z-score values follow.
propertyLabel: composite z-score

compound	recordedValue
COCCOC(=O)N1C(=O)[C@@]2(c3ccccc31)[C@H](C(=O)NC[C@H](O)c1ccccc1)[C@H]1C(=O)O[C@H](c3ccccc3)[C@H](c3ccccc3)N1[C@@H]2c1ccc(OCCO)cc1	-0.0959
CN(C)C(=O)[C@]1(CCC(=O)OC(C)(C)C)N=C(c2ccc(OCCCO)cc2)O[C@@H]1c1ccccc1N=[N+]=[N-]	-0.0985
COCCOC(=O)N1C(=O)[C@@]2(c3cc(C#CCCO)ccc31)[C@H](c1ccccc1OCCO)N1[C@H](c3ccccc3)[C@H](c3ccccc3)OC(=O)[C@H]1[C@@H]2C(=O)N1CCN(c2ncccn2)CC1	0.123
COc1ccc(C#Cc2ccc3c(c2)[C@]2(C(=O)N3)[C@H](C(=O)NC[C@H](O)c3ccccc3)[C@H]3C(=O)O[C@H](c4ccccc4)[C@H](c4ccccc4)N3[C@@H]2c2ccc(OCCO)cc2)cc1	-0.125
COc1c(C)cc(-c2cc3c(c(-c4ccc(Oc5ccccc5)cc4)n2)[Si](C(C)C)(C(C)C)OC3)cc1C	0.0016
CC(=O)C1=CCC(c2ccccc2)N(S(=O)(=O)c2ccc(C)cc2)C1 (stereo not drawn)	-0.0439
COc1ccc(C#Cc2ccc3c(c2)[C@]2(C(=O)N3)[C@H](c3ccc(O)cc3)N3[C@H](c4ccccc4)[C@H](c4ccccc4)OC(=O)[C@H]3[C@@H]2C(=O)N2CCCCCCC2)cc1	0.939
COC(=O)C[C@@H]1C[C@H](C)[C@]2(O1)C(=O)N(Cc1ccccc1)c1ccc(NC(C)=O)cc12	-0.185
Cc1ccc(S[C@]2(C(=O)NC3CC3)CC(=O)N(C3CCCCC3)[C@@H]2c2ccc(CO)cc2I)cc1	-0.123
O=c1oc(-c2ccccc2)nc2cc(Br)ccc12	-0.0984
C[C@]1(C(=O)NCc2ccccc2)c2ccccc2C(=O)N(Cc2ccc(OC(F)(F)F)cc2)[C@H]1c1ccc(CO)cc1	-0.103
CCOC(=O)C[C@H]1[C@H](OC(=O)c2ccc(C(=O)c3ccccc3)cc2)[C@@H](NC(=O)C2CCCCC2)c2cc(OCCCO)ccc2N1C(=O)c1ccccc1	-0.132
CO[C@H]1O[C@H](CO)[C@@H](OC(=O)Nc2ccc(Oc3ccccc3)cc2)[C@H](OC(=O)Nc2ccccc2)[C@H]1OC(=O)Nc1ccccc1	-0.0064
O=C(CS)NCCCCCCNC(=O)[C@H]1C[C@H]2C(=O)NCC(=O)N2[C@H]1c1ccc(O)cc1	-0.14
Cc1ccc(S[C@]2(C(=O)NCCN3CCOCC3)CC(=O)N(Cc3cc(C(F)(F)F)cc(C(F)(F)F)c3)[C@@H]2c2ccc(CO)cc2I)cc1	-0.164
CC(C)c1ccc(NN2C(C(O)c3c(F)cccc3Cl)C=CC3C(=O)N(c4ccccc4)C(=O)C32)cc1 (stereo not drawn)	0.395
[N-]=[N+]=NCc1ccccc1[C@H]1OC(c2ccc(OCCCO)cc2)=N[C@@]1(CCS(=O)(=O)c1ccccc1)C(=O)N1CCOCC1	0.268
Cc1ccc(S[C@]2(C(=O)NCc3ccccc3)CC(=O)N(Cc3ccccc3Cl)[C@@H]2c2ccc(CO)cc2I)cc1	-0.198
CC(C)N1C(=O)c2ccccc2[C@@H](C(=O)NCCCN(C)C)[C@@H]1c1ccc(CO)cc1	0.0364
O=C1C2C=CC(C(O)c3ccc(B(O)O)cc3)N(Nc3ccccc3)C2C(=O)N1c1ccccc1 (stereo not drawn)	-0.0438
COCCOC(=O)N1C(=O)[C@@]2(c3cc(C#CCC(C(=O)OC)C(=O)OC)ccc31)[C@H](c1ccccc1OCCO)N1[C@H](c3ccccc3)[C@H](c3ccccc3)OC(=O)[C@H]1[C@@H]2C(N)=O	-0.0357
C=CCNC(=O)[C@@H]1[C@H]2C(=O)O[C@H](c3ccccc3)[C@H](c3ccccc3)N2[C@H](c2ccccc2OCCO)[C@@]12C(=O)Nc1ccc(C#CC3=CCCCC3)cc12	-0.0907
CCOC(=O)C[C@H]1[C@H](OC(=O)c2ccccc2-c2ccccc2)[C@@H](NC(=O)Cc2ccc(OC)cc2)c2cc(OCCCO)ccc2N1C(=O)c1ccccc1	-0.155
CC(C)(C)N1CC=CC23O[C@@H]4C=CCOC(=O)[C@@H]4[C@H]2C(=O)N(CCCCCO)[C@@H]3C1=O (stereo partly drawn)	-0.229
CN1C(=O)C2C(C1=O)C1C=C(CCCO)C2C(c2cccs2)N1C (stereo not drawn)	-0.231
C=C(COC)C(=O)CC[C@H](OC(C)=O)c1cccc(OCCO)c1	-0.154
CCOC(=O)C[C@H]1[C@H](OC(=O)c2ccc(-c3ccccc3)cc2)[C@@H](NC(=O)Cc2ccc(OC)cc2)c2cc(OCCCO)ccc2N1C(=O)c1ccc2ccccc2n1	-0.0288
C=CC[C@@H](OC(=O)Nc1ccc(OC)cc1)c1ccc(O)c2ccccc12	-0.133
